// Cmax lookup, one value per entry
# assay.protocol: Pharmacokinetic test in SD rats, single intragastric administration
# measurement.parameters: rat, plasma, po, 25 mg/kg

Examples from the recorded data:
COc1cc2nn(CCS(=N)(=O)c3ccncc3)cc2cc1NC(=O)c1cccc(C(F)(F)F)n1 (stereo not shown): 1400 ng/mL
CC(C)(O)c1cc2nn(CCS(=N)(=O)c3ncnc4ccccc34)cc2cc1NC(=O)c1cccc(C(F)(F)F)n1 (stereo not shown): 1630 ng/mL
COc1cc2nn(CCS(=N)(=O)c3ccncc3)cc2cc1NC(=O)c1coc(-c2ccnc(C)c2)n1 (stereo not shown): 1380 ng/mL
Cc1cc(-c2nc(C(=O)Nc3cc4cn(CCS(=N)(=O)c5ccccn5)nc4cc3N3CCC(O)C3)co2)ccn1 (stereo not shown): 1400 ng/mL

Input: Look up and state reported Cmax for CC(C)(O)c1cc2nn(CCS(C)(=N)=O)cc2cc1NC(=O)c1cccc(C(F)(F)F)n1 (stereo not shown) [MY-004-102, reference compound]
Output: 235 ng/mL

Input: Look up and state reported Cmax for COc1cc2nn(CCS(=N)(=O)c3ccncc3)cc2cc1NC(=O)c1cnn2cccnc12 (stereo not shown)
Output: 1520 ng/mL

Input: Look up and state reported Cmax for COc1cc2nn(CCS(=N)(=O)c3ncccn3)cc2cc1NC(=O)c1cccc(C(F)(F)F)n1 (stereo not shown)
Output: 1300 ng/mL
